Source listed as the supplement of paper PMC9170038.

# Test system: MS2 coat protein
# ASSAY_EXPLANATION: apparent KD of MS2 coat protein; designed switch direction (-1 OFF switch, 1 ON switch): -1; higher = weaker reporter binding
# CONDITION: input ligand: none
The entries below come with measured apparent KD of MS2 coat protein values attached.
Report only the number, with the unit nM understood.

RESIDUE_STRING	ASSAYED_TARGET	ATTRIBUTE_MEASURED	REPORTED_MEASUREMENT
GCUAUUAGAGGAUAUACAUGAGGAUCACCCAUGUGGUCAAGUCGGUGCCAACUGUUAGGUAGAAGGCUGGAGCC [Eternabot (L1) Solution 76] (Eterna round: R97, puzzle: Exclusion 3)	MS2 coat protein	apparent KD of MS2 coat protein	49.7
UAUCAUCAUGUAGGAUAUGCGUGGCAAAGCUAUGCAGAAGGACAUGAGGAUCACCCAUGUUCUAGCGUCUGCGUACAGAUGCUA [Mat - Exclusion NG 1 - Mod of JL - D74] (Eterna round: R96, puzzle: Exclusion NG 1)	MS2 coat protein	apparent KD of MS2 coat protein	68.7
ACAUGAGGAUCACCCAUGUUUUUCGGGUACUCUUGAUACAGCAAGGAUAUGCAUUAUUUAUGUACGCAGAAGGUGCAUUACGUC [JR_ExcNG3_Sub064] (Eterna round: R96, puzzle: Exclusion NG 3)	MS2 coat protein	apparent KD of MS2 coat protein	71.9

Recorded apparent KD of MS2 coat protein (sequence AGUACUGACACGUCGGUGUUAGUACAAUAAGCUUGUGAAACAUGAGGAUCACCCAUGUCCUCAUAAGCUCGUCUUAU [salish99_TOv2_r3_081] (Eterna round: R96, puzzle: Sensor v3, turn-off variant 2) ): 17.2

---

# System: K4 kissing-loop RNA reporter
# ASSAY_EXPLANATION: apparent KD of K4 kissing-loop reporter; higher = weaker reporter binding
# CONDITION: Eterna round: R107; input ligand: arginine 13.2 mM
Reported apparent KD of K4 kissing-loop reporter by item:
Output spec: scalar in nM, unitless text.

Entry CCCUCACGAGUGAUGUUCGUAGGGUACAGUCAGGAUAUCAUGCGGUUGAGAAGGGACAGAAAGGGCGGCCACGGGUUGCUCAUUU [Issogeso] , K4 kissing-loop RNA reporter data, apparent KD of K4 kissing-loop reporter value: 352

Entry GGGCAUGUUAAAGGAUAUAGCAGGUGAUACAAGAAAGUGAGUGAUGUUUAUGUAGAUGAUGAUAUGUUAGAAGGUUAACAAAACC [abcdefghijklm] ; assay system K4 kissing-loop RNA reporter; apparent KD of K4 kissing-loop reporter recorded at 475

The reported apparent KD of K4 kissing-loop reporter value, K4 kissing-loop RNA reporter, for CUAUCCCGCCGUGUAUGUAGUAUACGGUGCCGAGGACCGGUACGGCCGCCACUCGAUAAGCUUUGUCGGAGUGAUGUUCCGACCG [Soleesen] reads 181

---

# System: MS2 coat protein
# ASSAY_EXPLANATION: apparent KD of MS2 coat protein, switch OFF state (with FMN for OFF switches, without FMN for ON switches); designed switch direction (-1 OFF switch, 1 ON switch): -1; higher = weaker reporter binding
# CONDITION: FMN input: 0 or 200 uM; Eterna round: R93 (includes R88 designs)
ATTRIBUTE_MEASURED: apparent KD of MS2 coat protein
Give me the value, and tack the unit on after it.

// known answers, use as guide
RESIDUE_STRING	apparent KD of MS2 coat protein
AAAAAAGGAGGAUAUACGUACAUGUCAAAAGACGUGAAGGGACAUGAGGAUCACCCAUGUAGAAGGCCUAAAAA [JL Part Open 33]	78.3 nM
AACACACAUGAGGAUCACCCAUGUCAGGAUAUGCCGGGUUAGAGCCAACUGAAAAACCGUAGAAGGGACGAAAA [Bilbo Confounded 9 - Jieux - Exclusion 1]	61.6 nM

Now take the following sequence into account.
apparent KD of MS2 coat protein recorded for this sequence, AAAAGGGCAGGAUAUGCGUACUCACGGGAAAACUGAAUGGUACAUGAGGAUCACCCAUGUAGAAGGGCUAAAAA [Dora Explored 19 - Jieux - Exclusion 2] , is 37.8 nM

---

Entries and their apparent KD of K4 kissing-loop reporter
# Test system: K4 kissing-loop RNA reporter
# ASSAY_EXPLANATION: apparent KD of K4 kissing-loop reporter; higher = weaker reporter binding
# CONDITION: Eterna round: R107; input ligand: FMN 200 uM
Give the value, in units of nM, as a plain number.

Example entries begin here.
RESIDUE_STRING	apparent KD of K4 kissing-loop reporter (nM)
CUAGGCCCUCGGCGGGACAUUGCGUGGGAAGGAGCGCAGAUAACUGCAGGUAGGUCGCCCAGUGAUGUUGGGCGAAUAUUGGUCA [Esinabige]	102
GCGCGUGUUAAAGGAUAUAGCAGGUGAUACAAGAAAGUGAGUGAUGUUUAUGUAGAUGAUGAUAUGUUAGAAGGUUAACAAGCGC [abcdefghijklmnopq]	778

# sequence UGGCGUAGAACCGCCGAAUCGCUGUGAGAAGGAGCGGUAAAAUUGCCAGGUAGGUCGCUCACAGCCUCACAGUGAUGUUGUGGGA [Cequralaza] ; its apparent KD of K4 kissing-loop reporter = 758

Record summary for UAACCUGUAAACGAUACCAGUUGCAUGGAAACUUGGUACUAGCUAGUGAUGUUAGCAAGCAACCCUUGGCAGCGUCGCCUGACAG [theeternabot_sameState_KL_Theo_B_17] : reported apparent KD of K4 kissing-loop reporter = 308

apparent KD of K4 kissing-loop reporter reading for UGCAGUGAUGUUGCUAUUUUUCUUGAUUAACGAGGACCGGUACGGCCGCCACUCGAUUUCUCUCUAAUCCAGUAUGUUGUUUAGU [JR_ExcTryptoA_Sub001] : 111

Query AUGCGGUGGAGGCUACCGCUAUUCUGAGAAGGAGCGCAGAUGACUGCAGGUAGGUCGCUUAGAGCUUGCAGUGAUGUUGCAAGUU [Islatimaed] yields apparent KD of K4 kissing-loop reporter of 200

---

# System: K4 kissing-loop RNA reporter
# ASSAY_EXPLANATION: apparent KD of K4 kissing-loop reporter; higher = weaker reporter binding
# CONDITION: Eterna round: R107; input ligand: none
Classify by measured apparent KD of K4 kissing-loop reporter: Fulfilled if it is equal to or exceeds 800 nM, Not fulfilled if it is smaller.

RESIDUE_STRING	ASSAYED_TARGET	GROUP_LABEL
AGAACUGUCUUGGAUACCAGUGAUGUUGGUAUCGAUGUGUGAGUGCAAAGCGUCCCACAUUGCCCUUGGCAGCUAAGACUGUUCA [Omei KL Theo B Exc A v3]	K4 kissing-loop RNA reporter	Not fulfilled

Proceed to the following item.
Qu. API: above_or_equal(metric=apparent KD of K4 kissing-loop reporter, cutoff=800 nM) for item AGGCACGAGCAAGGAUAUCGAGUAGAGUGAUGUUCUGCCUGGGUUGGCUCGCAAGAGCCUUCUCAGCGAGAAGGUGCUCGUGCCU [#2 Same State - FMN A Attempt #18 (HarryS)]
Ans. Fulfilled

---

# Test system: MS2 coat protein
# ASSAY_EXPLANATION: apparent KD of MS2 coat protein; designed switch direction (-1 OFF switch, 1 ON switch): -1; higher = weaker reporter binding
# CONDITION: Eterna round: R95; input ligand: microRNA oligo, concentration not stated
ATTRIBUTE_MEASURED: apparent KD of MS2 coat protein
Reply with the number and its unit after it.

Record excerpt, results attached:
RESIDUE_STRING	apparent KD of MS2 coat protein
CUAUUGUGAGGAUAUCAGUAGUAAUACAAUAGUAUUACUACUGAGAAGGCACAUGAGGAUCACCCAUGUUCCUU [Mat - Exclusion 4 - Mod of Omei - D76] (puzzle: Exclusion 4)	14.4 nM
CAUACUCAAGUGAGGAUAUAGUCUCGGAUACGAAACUAGAAGGCACAUGAGGAUCACCCAUGUAGAGAGUAAAG [EX-4 Malc #29] (puzzle: Brourd's mod of Exclusion 4)	18.5 nM

Moving on to the next sequence.
Entry GGUGCGUGUGUGAGGAUAUGCUGGUCCUUGGCUCGGCAGAAGGCACAUGAGGAUCACCCAUGUGGUGUCGUGCC [salish99_Bmod_ex4_057] (puzzle: Brourd's mod of Exclusion 4) , apparent KD of MS2 coat protein reported as 19.9 nM

---

# System: K4 kissing-loop RNA reporter;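 note: bound reporter read as fluorescence of individual clusters on recovered sequencing chips by microscopy, with normalized cluster intensities fitted with a binding model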
# ASSAY_EXPLANATION: apparent KD of K4 kissing-loop reporter; higher = weaker reporter binding
# CONDITION: Eterna round: R107; input ligand: FMN 200 uM
ATTRIBUTE_MEASURED: apparent KD of K4 kissing-loop reporter (nM)
Number in nM, nothing else.

// known answers, use as guide
RESIDUE_STRING	UNITS_OF_MEASURE	apparent KD of K4 kissing-loop reporter
GGAUCCACCAGUGAUGUUGGAGAAAACUCAAAGGAUAUGACGAAAGUCAGAAGGUUGUAGACUGGACAAAGUCCGGUCGGAUCCA [FmnA 19 A30+U56]	nM	450
UCUUAACUAAAAUAAUGGGAUACCAGUGAUACCAGCCAUAUGCAGGGCCCUUGGCAGCACCCUUGGCAGCCUCGAGUGAUGUUCG [KL-SSTheo-A7 #DoubleAptamer]	nM	283
UGCUUAAUGGAAGGAUAUUAGGGUUCGACCGCGUAUCAUUGUUAGUCUGGCCAGUGAUGUUGGCCUUAAGAAGGUCCGCUACGGU [theeternabot_exclusion_KL_FMN_B_27]	nM	207
UGGACGUUAUACAAUAAGUAUAACUGGGAUACCAGUGACGAAAGUCACCCUUGGCAGCUCAACUGCCAGUGAUGUUGGUAGUCCA [Astros-Eli-mod#5]	nM	273
GGGAGUAGUGCGGCCGCCACUGAGAAAGAAGAAGAAUAUAGUGAUGUUAUAUAGGAAUAAAAGAAUAGGACCGGGCAUUAGAUUU [SSTRyptB.S]	nM	165

Noted for `UGAACUUUUGCUAGGAACCGUCUAGCUCUUUAGGAUAUCUGGAAACAGAGAAGGAAAGACCUACAGAGUGAUGUUCUGCGUUCAU` : its apparent KD of K4 kissing-loop reporter reads 383

Summary for this sequence, GACUACCGGGCGGCCGCCACUGGGCUCCGAGUGAUGUUCGGAAAGACUCAUACACUGCUGUCAGACAGGACCGGGCCAAGGCGCA [theeternabot_sameState_KL_Trp_B_5] : apparent KD of K4 kissing-loop reporter is 145
